Reference source: patent US20100278929A1

Here the recorded Fold Difference (Curve IC50), against palivizumab is given for each entry.
MEASURED TARGET: RSV (Long strain) F protein on infectious virus (respiratory syncytial virus (Long strain)) (UniProt P12568)
Sequence (P12568 26-574): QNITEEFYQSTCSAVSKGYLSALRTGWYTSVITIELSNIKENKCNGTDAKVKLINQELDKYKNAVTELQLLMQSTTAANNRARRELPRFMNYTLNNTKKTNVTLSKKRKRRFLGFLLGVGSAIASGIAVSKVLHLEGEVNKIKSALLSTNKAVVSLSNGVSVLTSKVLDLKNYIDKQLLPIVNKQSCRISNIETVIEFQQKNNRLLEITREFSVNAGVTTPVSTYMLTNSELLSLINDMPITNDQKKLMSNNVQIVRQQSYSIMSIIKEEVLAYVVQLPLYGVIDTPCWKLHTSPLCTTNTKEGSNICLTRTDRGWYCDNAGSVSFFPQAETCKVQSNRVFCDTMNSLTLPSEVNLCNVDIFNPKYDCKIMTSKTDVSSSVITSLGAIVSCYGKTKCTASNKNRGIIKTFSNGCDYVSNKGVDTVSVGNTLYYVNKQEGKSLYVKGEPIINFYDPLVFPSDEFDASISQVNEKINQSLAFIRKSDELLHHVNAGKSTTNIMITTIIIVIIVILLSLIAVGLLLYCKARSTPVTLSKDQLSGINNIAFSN
EXPERIMENT DESCRIPTION: cell-based or functional assay
ENDPOINT NAME: Fold Difference (Curve IC50), against palivizumab (fold)

| BINDER | UNIT OF MEASURE | OBSERVED |
| --- | --- | --- |
| A17d4(1) Fab fragment (Fab, V domains shown) VH: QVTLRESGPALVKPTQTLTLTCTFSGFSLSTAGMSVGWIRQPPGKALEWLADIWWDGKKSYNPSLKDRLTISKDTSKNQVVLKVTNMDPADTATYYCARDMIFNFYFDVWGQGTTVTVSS VL: DIQMTQSPSTLSASVGDRVTITCLPSSRVGYMHWYQQKPGKAPKLLIYDTMYQSSGVPSRFSGSGSGTEFTLTISSLQPDDFATYYCFQGSGYPFTFGGGTKVEIK | fold | 25 |
| P11d4 monoclonal antibody (antibody, V domains shown) VH: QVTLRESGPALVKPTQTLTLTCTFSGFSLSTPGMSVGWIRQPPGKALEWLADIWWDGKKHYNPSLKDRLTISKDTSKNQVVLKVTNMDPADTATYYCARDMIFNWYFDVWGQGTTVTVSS VL: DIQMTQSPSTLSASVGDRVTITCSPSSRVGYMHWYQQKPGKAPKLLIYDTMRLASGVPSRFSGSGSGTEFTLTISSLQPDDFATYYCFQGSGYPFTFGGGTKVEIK | fold | 21 |
| P12f2 Fab fragment (Fab, V domains shown) VH: QVTLRESGPALVKPTQTLTLTCTFSGFSLSTPGMSVGWIRQPPGKALEWLADIWWDDKKHYNPSLKDRLTISKDTSKNQVVLKVTNMDPADTATYYCARDMIFNFYFDVWGQGTTVTVSS VL: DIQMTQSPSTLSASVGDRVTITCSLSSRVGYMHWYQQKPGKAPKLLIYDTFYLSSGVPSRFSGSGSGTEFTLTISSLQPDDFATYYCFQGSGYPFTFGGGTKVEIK | fold | 11 |
